Every entry's value here was drawn from patent US20210403601A1.

Biological target: T1, Taq DNA polymerase (Thermus aquaticus, UniProt P19821 1-832)
T1 construct: also called Taq enzyme; Taq DNA enzyme
T1 sequence (P19821 whole entry): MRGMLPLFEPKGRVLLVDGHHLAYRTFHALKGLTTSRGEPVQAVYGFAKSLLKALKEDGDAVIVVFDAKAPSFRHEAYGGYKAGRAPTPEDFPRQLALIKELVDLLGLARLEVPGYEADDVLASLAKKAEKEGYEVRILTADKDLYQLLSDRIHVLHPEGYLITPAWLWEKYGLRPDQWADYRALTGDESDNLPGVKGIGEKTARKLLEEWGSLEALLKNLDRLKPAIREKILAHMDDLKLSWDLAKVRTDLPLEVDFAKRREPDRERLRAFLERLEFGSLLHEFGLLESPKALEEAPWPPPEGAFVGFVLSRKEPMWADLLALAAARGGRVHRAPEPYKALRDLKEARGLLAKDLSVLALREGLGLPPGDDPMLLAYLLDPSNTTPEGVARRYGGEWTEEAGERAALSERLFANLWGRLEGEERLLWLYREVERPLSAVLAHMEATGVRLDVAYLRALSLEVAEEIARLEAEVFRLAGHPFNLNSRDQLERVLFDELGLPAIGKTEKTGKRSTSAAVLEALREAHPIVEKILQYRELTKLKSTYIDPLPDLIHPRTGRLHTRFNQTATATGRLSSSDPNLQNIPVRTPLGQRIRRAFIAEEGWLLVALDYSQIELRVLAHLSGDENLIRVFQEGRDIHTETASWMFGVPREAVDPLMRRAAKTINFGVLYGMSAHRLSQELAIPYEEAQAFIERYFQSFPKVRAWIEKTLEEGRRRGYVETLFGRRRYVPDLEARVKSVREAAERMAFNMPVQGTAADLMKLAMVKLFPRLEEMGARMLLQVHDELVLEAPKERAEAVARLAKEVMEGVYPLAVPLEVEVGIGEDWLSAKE
Test: AMC sensor, antibody immobilised
Attribute: koff

{"BINDER": "Mutation 1-10 (antibody, V domains shown, Mutation 1 background; CDRs built) VH: QVQLQQPGAELVKPGASVRLSCQTSVNTFSTYYIYWVKQRPGEGLEWIGGINPTSGGPVFNEKFKSKATLTVDTSSSTAYMQLSSLTSVDSAVYYCTRSIVRRGYYFDYWGQGTALTVSS VL: DIQMTQTTSSLSASLGDRVTISCRASQDIQNYINWYQQKPDGTIKLLIYYTSRLQSGVPSRFSGSGSGTDYSLTIANLEQEDIATYFCQQDDTIPITFGAGTKVELKR", "UNIT": "s⁻¹", "koff": "3.76e-05"}
{"BINDER": "Mutation 1-21 (antibody, V domains shown, Mutation 1 background; CDRs built) VH: QVQLQQPGAELVKPGASVRLSCQTSVNTFSTYYIYWVKQRPGEGLEWIGGVNPTSGGPVFNEKFKSKATLTVDTSSSTAYMQLSSLTSVDSAVYYCTRSVLRRGYYFDYWGQGTALTVSS VL: DIQMTQTTSSLSASLGDRVTISCRASQDINNYLNWYQQKPDGTIKLLIYYTSRLQSGVPSRFSGSGSGTDYSLTIANLEQEDIATYFCQQDDTVPVTFGAGTKVELKR", "UNIT": "s⁻¹", "koff": "5.96e-06"}
{"BINDER": "Mutation 1-45 (antibody, V domains shown, Mutation 1 background; CDRs built) VH: QVQLQQPGAELVKPGASVRLSCQTSVNTFTTYYIYWVKQRPGEGLEWIGGINPTSGGPVFNEKFKSKATLTVDTSSSTAYMQLSSLTSVDSAVYYCTRSILRRGYYFDYWGQGTALTVSS VL: DIQMTQTTSSLSASLGDRVTISCRASQDINNYLNWYQQKPDGTIKLLIYYTSRLNSGVPSRFSGSGSGTDYSLTIANLEQEDIATYFCQQDDTIPLTFGAGTKVELKR", "UNIT": "s⁻¹", "koff": "3.07e-06"}
